- assay_system: UniProt Q99572
- measurement_protocol: P2X7 antagonism in human PBMCs (IL-1β release after LPS + Bz-ATP, ELISA)
- Format: cell-based
- measurement_context: human PBMCs, test compound 1 μM
measurement_name: PBMC 1 μM (% control)
# output: bare number, implied unit % control

Before answering, review these 5 worked examples.
Just so you know, measured PBMC 1 μM (% control) for CCOC(=O)C1c2ncn(-c3ccccn3)c2CCN1C(=O)c1cccc(Cl)c1Cl (stereo not shown) came out at 9.7

PBMC 1 μM (% control) reported for this molecule CC(C)C1c2ncn(-c3cnccn3)c2CCN1C(=O)c1cccc(C(F)(F)F)c1Cl (stereo not shown) : 8.5

Briefly, PBMC 1 μM (% control) measured for CC1c2ncn(-c3ccc(F)cc3)c2CCN1C(=O)c1cccc(C(F)(F)F)c1Cl (stereo not shown) : 5.3

// Cn1nc(-c2ccccc2)c2c1CN(C(=O)c1cccc(Cl)c1Cl)CC2 : PBMC 1 μM (% control) value = 56.0

Reported PBMC 1 μM (% control) of Cn1nc2c(c1-c1ccncc1)CCN(C(=O)c1cccc(Cl)c1Cl)C2 : 88.0

Others:
What the record says about O=C(c1cccc(C(F)(F)F)c1F)N1CCc2c(nnn2-c2ccccn2)C1 : PBMC 1 μM (% control) is 22.0

Field PBMC 1 μM (% control) (entry CCC1c2ncn(-c3cnccn3)c2CCN1C(=O)c1cccc(C(F)(F)F)c1Cl (stereo not shown) ) reads 9.1

----------
- assay_system: human P2X7 (Homo sapiens (Human), UniProt Q99572)
- Sequence (Q99572 whole entry): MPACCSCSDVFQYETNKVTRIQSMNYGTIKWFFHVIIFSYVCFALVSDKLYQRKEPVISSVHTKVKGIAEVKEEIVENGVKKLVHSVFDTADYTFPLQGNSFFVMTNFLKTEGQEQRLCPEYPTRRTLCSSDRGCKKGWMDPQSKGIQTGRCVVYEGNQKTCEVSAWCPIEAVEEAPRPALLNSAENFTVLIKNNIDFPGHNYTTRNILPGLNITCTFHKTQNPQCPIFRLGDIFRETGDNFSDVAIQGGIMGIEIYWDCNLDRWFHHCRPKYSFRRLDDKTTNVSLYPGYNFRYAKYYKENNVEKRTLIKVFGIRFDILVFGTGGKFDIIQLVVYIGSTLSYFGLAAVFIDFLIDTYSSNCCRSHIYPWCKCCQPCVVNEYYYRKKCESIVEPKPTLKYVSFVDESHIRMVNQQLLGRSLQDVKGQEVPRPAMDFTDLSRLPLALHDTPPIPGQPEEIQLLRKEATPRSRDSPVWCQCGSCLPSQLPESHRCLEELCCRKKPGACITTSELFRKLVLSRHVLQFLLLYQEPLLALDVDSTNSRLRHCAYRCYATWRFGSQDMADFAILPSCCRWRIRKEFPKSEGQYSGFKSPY
- measurement_protocol: P2X7 antagonism in human PBMCs (IL-1β release after LPS + Bz-ATP, ELISA)
- Type: cell-based
- measurement_context: test compound 10 μM, LPS 30 ng/ml + 0.5 mM Bz-ATP
measurement_name: PBMC 10 μM (% control)
Please respond with the number in % control and leave the unit unwritten.

Solved entries:
Record summary for Cc1c(C(=O)N2Cc3nnn(-c4ncc(F)cn4)c3C[C@H]2C)ccnc1C(F)(F)F (single isomer, unassigned) : reported PBMC 10 μM (% control) = −0.6

Lab book: PBMC 10 μM (% control) of Cc1nc(-n2nnc3c2CCN(C(=O)c2cccc(C(F)(F)F)c2Cl)C3C)ncc1F (single isomer, unassigned) noted as 2.5

The recorded PBMC 10 μM (% control) for C[C@H]1Cc2c(nnn2-c2ncc(F)cn2)CN1C(=O)c1ccnc(C(F)(F)F)c1Cl (single isomer, unassigned) is −1.2

Others:
Lab note: measured PBMC 10 μM (% control) of C[C@@H]1c2ncn(-c3ccc(F)cc3)c2CCN1C(=O)c1cccc(C(F)(F)F)c1Cl (single isomer, unassigned) was 2.1

PBMC 10 μM (% control) in this record for Cc1ccnc(-n2nnc3c2CCN(C(=O)c2cccc(C(F)(F)F)c2Cl)[C@H]3C)c1 (single isomer, unassigned) : −0.5

Briefly, PBMC 10 μM (% control) measured for C[C@@H]1c2nnn(-c3ncccn3)c2CCN1C(=O)c1cccc(C(F)(F)F)c1F (single isomer, unassigned) : −3.7

----------
- assay_system: human P2X7 (Homo sapiens (Human))
- measurement_protocol: Ca2+ flux (FLIPR) in 1321N1 cells expressing recombinant human P2X7;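 further: cells loaded with Calcium-4 dye, preincubated with test compound for 30 min, fluorescence change read 180 s after agonist addition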
- Type: cell-based
- measurement_context: Ca2+ flux, 250 μM BzATP, human P2X7 1321N1 cells
pIC50: −log10 of the molar value.
Classification field: enter class 1 for pIC50 values not below 7, class 0 for values below it.

hey, is pIC50 for this one >= 7? C[C@H]1Cc2c(nnn2-c2ncc(F)cn2)CN1C(=O)c1cccc(C(F)(F)F)c1O [Example 426] class 0

---
Is pIC50 for CC1c2n[nH]c(-c3ccc(F)cc3)c2CCN1C(=O)c1cccc(C(F)(F)F)c1Cl (stereo not shown) [Example 434] at or above 7? class 1

Given CC1c2n[nH]c(-c3ccnn3C)c2CCN1C(=O)c1cccc(Cl)c1Cl (stereo not shown) [Example 436] , state whether its pIC50 is at least 7. class 0

Given CC(C)n1ccc(-n2nnc3c2C[C@H](C)N(C(=O)c2cccc(C(F)(F)F)c2F)C3)n1 [Example 414] , state whether its pIC50 is at least 7. class 0

Record C[C@H]1Cc2c(nnn2-c2ncc(F)cn2)CN1C(=O)c1cccc(OC(F)(F)F)c1F [Example 427] ; criterion: pIC50 no lower than 7. Met? class 0

State whether the measured pIC50 reaches 7, counting equality as reaching it, for CC1c2n[nH]c(-c3ncccn3)c2CCN1C(=O)c1cccc(Cl)c1Cl (stereo not shown) [Example 431] class 1

Does the reported pIC50 for CCn1ccc(-n2nnc3c2CCN(C(=O)c2ccnc(C(F)(F)F)c2F)[C@H]3C)n1 [Example 409] fall at or above the 7 mark? class 1

Tell me whether pIC50 is at least 7 here: CC1c2n[nH]c(-c3cnccn3)c2CCN1C(=O)c1cccc(Cl)c1Cl (stereo not shown) [Example 433] class 1

Assess whether reported pIC50 for CCn1ccc(-n2nnc3c2CCN(C(=O)c2cccc(C(F)(F)F)c2Cl)[C@H]3C)n1 [Example 405] sits at 7 or higher. class 0

Reported pIC50 reaches at least 7 for CC1c2n[nH]c(-c3ccnn3C)c2CCN1C(=O)c1cccc(C(F)(F)F)c1Cl (stereo not shown) [Example 437] ? class 0
